- Tested on: KM12
- measurement.description: NCI tumour cell line growth inhibition, 48 h
The source made the active and inactive calls. No stated cut-off is given here; in the data, active = GI50 up to about 1.1 µM and inactive = higher.
Labels: YES for active, NO for inactive

> print(dat)
                                    molecule  assay.system  answer.label
 1   CC(C)(C)OC(=O)N/C=C1\C(=O)Oc2ccccc2C1=O          KM12            NO
 2  CC(C)=CC(=O)OC1C2C(C)=CC(=O)C(O)C2(C)C2C3(O)OCC24C(CC(=O)OC14)C(C)C3O (stereo not drawn)          KM12           YES
 3  Clc1ccc(Oc2ccc(/N=C/c3ccc(Cl)cc3Cl)cc2Cl)cc1          KM12            NO
 4  Nc1ncnc2c1ncn2C1C(O)C=C(CO)C1O (stereo not drawn)          KM12            NO
 5   CCOC(=O)c1[nH]c(Br)c(-c2ccc(Br)cc2)c1Br          KM12           YES
 6  CCC12CC[C@H](C#N)N3CCc4c(n(c5ccccc45)C(=O)C1)C32 (stereo partly drawn)          KM12            NO
 7  C=C1C(=O)O[C@@H]2/C=C(\C)CC/C=C(/COC(C)=O)C[C@@H](OC(C)=O)[C@@H]12          KM12            NO
 8  CC1(C)CCCCCCC2OC2CCCCCC(C)(C)C1=O (stereo not drawn)          KM12            NO
 9  CC(O)(P(=O)(O)O)P(=O)(O)OCC(O)CN1CCOCC1 (stereo not drawn)          KM12            NO
10  CCN(CC)CC(=O)O[C@]1(CC)C(=O)OCc2c1cc1n(c2=O)Cc2cc3ccccc3nc2-1          KM12           YES
11  CCN1CCCC(C#N)(c2ccccc2)CC1 (stereo not drawn)          KM12            NO
12  O=C(Cc1ccccc1)N/N=C(/c1nc2ccc([N+](=O)[O-])cc2nc1O)C(O)c1ccccc1Cl (stereo not drawn)          KM12            NO
13  O=c1c2ccccc2nc(-c2cccc(Cl)c2)n1NCC1(O)OCC(O)C(O)C1O (stereo not drawn)          KM12            NO
14   C/C(CCn1[nH]c(=O)ccc1=O)=N\NC(=O)C(N)=O          KM12            NO
15  O=C1C(Cl)C(c2cc(Br)cc(Br)c2O)N1n1cnc2ccccc2c1=O (stereo not drawn)          KM12            NO
16           COc1ccc(/C(C)=N/NC(N)=S)c(OC)c1          KM12            NO
17  C[C@H](NS(=O)(=O)c1ccc(NC(=O)c2ccccc2)cc1)C(=O)O          KM12            NO
18  N=c1n(C(=O)N2CCCC2)c2cc(Cl)ccc2n1C1=NCCN1          KM12            NO
19  C1CN(C23OC4(N5CCOCC5)C5C6CC(C7C6C4C72)C53)CCO1 (stereo not drawn)          KM12            NO
20  CCC1CNC(=O)CC1CC(=O)OC (stereo not drawn)          KM12            NO
21  CCCCNC(=S)Nc1nc(C(=O)NNC(=S)NCc2ccccc2)cs1          KM12            NO
22  CC1C(=O)OCC2=CCN3CCC(OC(=O)C(C)C1(C)O)C23 (stereo not drawn)          KM12            NO
23  C=C1C(=O)OC2C1CC(O)/C(C)=C\CCC1(C)OC21 (stereo not drawn)          KM12            NO
